The entries below are paired with their reported IC50.
System: HeLa
procedure_details: Cytotoxicity against human HeLa cells after 48 hrs by Celltiter-Glo luminescent cell viability assay
Assay type: functional, cell-based
measurement_setup: read-out: IC50
Express the result in nM but write the number alone.

Some solved entries appear below for comparison.
smiles_repr	measured_endpoint	reading
COc1cc2c(c(OC)c1OC)-c1ccc(OC)c(=O)cc1[C@@H](NC(C)=O)CC2	IC50	21.8
COc1cc2c(c(OC)c1OC)-c1ccc(OC)c(=O)cc1[C@@H](n1cc(COC(=O)[C@H](Cc3ccccc3)NC(=O)OC(C)(C)C)nn1)CC2	IC50	70.7

Ask: Query IC50 on HeLa for COc1cc2c(c(OC)c1OC)-c1ccc(OC)c(=O)cc1[C@@H](n1cc(COC(=O)CCNC(=O)OC(C)(C)C)nn1)CC2
Result: 20

Ask: Query IC50 on HeLa for COc1cc2c(c(OC)c1OC)-c1ccc(OC)c(=O)cc1[C@@H](n1cc(CCC(=O)OCc3ccc(F)cc3)nn1)CC2
Result: 4.9
